- Tested on: estrogen receptor of rat prostates
- Test: Competitive binding with 3H-estradiol to estrogen receptor preparation of rat prostate cytosol
- Details: Table 2
The label is yes (1) for RBA Rat Prostate below 7 and no (0) for RBA Rat Prostate equal to or exceeding 7.

Report whether reported RBA Rat Prostate is lower than 7 (strictly) for "C=C[C@@]12CCc3cc(O)ccc3[C@H]1CC[C@@]1(C)[C@H]2CC[C@@H]1O"
no (0)

A record lists "C=C[C@@]12CCc3cc(O)ccc3C1=CC[C@@]1(C)[C@H]2CC[C@@H]1O" . Is its RBA Rat Prostate below 7?
no (0)

Please indicate whether the reported RBA Rat Prostate of "C[C@]12CC[C@@H]3c4ccc(O)cc4CC[C@@]3(C=C(F)F)[C@@H]1CC[C@@H]2O" is strictly below 7.
yes (1)

I wonder whether "C[C@@]12CCc3cc(O)ccc3[C@H]1CC[C@@]1(C)[C@H]2CC[C@@H]1O" has RBA Rat Prostate below 7. Can you tell?
no (0)

----------
Answer each item with its documented RBA Rat Uterus.
- Tgt: estrogen receptor of rat uteri (Rattus norvegicus)
- Construct: The preparation of rat uterus cytosol as well as the receptor test with the ER-containing cytosol; from tissue; host or cells: rat uterus cytosol
- Sequence (P06211 whole entry): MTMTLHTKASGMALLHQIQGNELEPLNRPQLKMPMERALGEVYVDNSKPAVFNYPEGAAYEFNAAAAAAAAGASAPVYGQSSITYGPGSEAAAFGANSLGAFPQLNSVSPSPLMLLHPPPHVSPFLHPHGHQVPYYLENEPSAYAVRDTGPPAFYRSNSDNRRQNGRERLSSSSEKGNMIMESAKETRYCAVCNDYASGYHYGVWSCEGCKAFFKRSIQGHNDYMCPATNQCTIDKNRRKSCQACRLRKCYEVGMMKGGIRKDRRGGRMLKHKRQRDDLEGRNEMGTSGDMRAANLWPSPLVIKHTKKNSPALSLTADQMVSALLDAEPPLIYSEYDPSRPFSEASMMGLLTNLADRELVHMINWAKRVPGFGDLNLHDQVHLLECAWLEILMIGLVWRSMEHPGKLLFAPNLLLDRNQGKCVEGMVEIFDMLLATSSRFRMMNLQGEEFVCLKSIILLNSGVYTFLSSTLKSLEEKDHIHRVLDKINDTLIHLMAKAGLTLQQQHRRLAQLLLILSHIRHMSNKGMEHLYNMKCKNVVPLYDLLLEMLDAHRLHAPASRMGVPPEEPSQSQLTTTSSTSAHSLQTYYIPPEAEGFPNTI
- Test: Competitive binding with 3H-estradiol to estrogen receptor preparation of rat uterus cytosol
- Details: Table 2
Reply briefly: the number, and no unit.

Lab request: please report RBA Rat Uterus under test system estrogen receptor of rat uteri (Rattus norvegicus) for "C[C@]12CC[C@@H]3c4ccc(O)cc4CC[C@@]3(C=C(F)F)[C@@H]1CC[C@@H]2O"
0.9

Provide value of RBA Rat Uterus for this record tested with estrogen receptor of rat uteri (Rattus norvegicus): "C[C@@]12CCc3cc(O)ccc3[C@H]1CC[C@@]1(C)[C@H]2CC[C@@H]1O"
1.3

Reported RBA Rat Uterus for estrogen receptor of rat uteri (Rattus norvegicus), given "C=C[C@@]12CCc3cc(O)ccc3[C@H]1CC[C@@]1(C)[C@H]2CC[C@@H]1O" ?
0.7

Tell me reported RBA Rat Uterus for "C=C[C@@]12CCc3cc(O)ccc3C1=CC[C@@]1(C)[C@H]2CC[C@@H]1O" , tested with estrogen receptor of rat uteri (Rattus norvegicus).
1
